Molecular target: T1, human Claudin 18.2 (hCLDN18.2) (human, UniProt P56856-2 1-261)
T1 construct: whole, on cells; also called CLDN18A2; claudin 18 splice variant 2
Experiment: FACS, HEK293-hCLDN18.2 cells
readout: EC50 (nM)
Write the value in nM as a bare number.

Problem: So what's the measured EC50 for this one? ch-76D11 (antibody, V domains shown, also called chimeric antibody of clone 76D11) VH: QVQLQQSGAELMKPGASVKLSCKASGYTFTGYWIEWIKQRPGHGLEWIGEILPGSGSIKYNEKFKDKATFTADTSSNTAYMQLSSLTTEDSAIYYCARKGLRGNSFDYWGQGTTLTVSS VL: DIVMTQSPSSLTVTAGEKVTMSCKSSQSLLNSGNQKNYLTWYQQKPGQPPKRLIYWASTRESGVPDRFTGSGSGTDFTLTISSVQAEDLAVYYCQNDYYYPFTFGSGTKLEIK
Result: 2.46

Problem: So what's the measured EC50 for this one? ch-241F7 (antibody, V domains shown, also called chimeric antibody of clone 241F7) VH: EVQLQQSGPELEKPGASVKISCKASGYSFTAYNMNWVRQRNGKSLEWIGNIDPYYGGTNYNQKFKGKATLTVDKSSSTAYMQLKSLTSEDSAVYFCATVYYGNSLIYWGQGTLVTVSA VL: DIVMTQSPSSLTVTAGEKVTMSCKSSQSLLNSGNQKNYLTWYQQKPGQPPKLLIYWASTRESGVPDRFTGTGSGTDFTLTISSVQAEDLAVYYCQNNYFYPLTFGAGTQLELK
Result: 3.02

Problem: So what's the measured EC50 for this one? ch-32G8 (antibody, V domains shown, also called chimeric antibody of clone 32G8) VH: EVHLQQSGPVLVKPGASVKMSCKASGYTFTDYHMNWVKQSHGKSLEWIGVINPYNGGIRYNQKFKGKATLTVDKSSSTAYMELNSLTSEDSAVYYCATIYYGNSFAYWGQGTLVTVSA VL: DIVMTQSPSSLTVTAGEKVTMSCKSSQSLLNSGNQKNYLTWYQQKPGQPPKLLIYWASTRESGVPDRFTGSGSGTDFTLTISSVQAEDLAVYYCQNNYIYPFTFGGGTKLEIR
Result: 2.66

Further cases:
Problem: So what's the measured EC50 for this one? ch-252F11 (antibody, V domains shown, also called chimeric antibody of clone 252F11) VH: EIQLVESGGGLVRPGGSLKLSCAASGFSFKNYVMSWVRQSPERRLEWVAEIRTGGDYTYYVDTVTGRFTISRDNAKNTLYLEMTSLRSEDTATYYCARVGYGNSLDYWGQGTTLTVSS VL: DIVMTQSPSSLTVTAGEKVTMSCKSSQSLLNSGNQKNYLTWYQQKPGQPPKLLIYWASTRESGVPDRFTGSGSGTDFTLTISSVQAEDLAVYSCQNNYFYPLTFGAGTELELK
Result: 2.2
